Numbers sourced from ChEMBL document CHEMBL1614629.

- protocol-text: Volume of distribution at steady state in human after iv administration
- Type: ADME, organism-based
- conditions-used: in vivo, read-out: Vdss
Listed below: log10(Vd) values for each entry.
readout: log10(Vd) (log10 of the value in L/kg)

CC(=N)N1CC[C@H](SC2=C(C(=O)O)N3C(=O)[C@H]([C@@H](C)O)[C@H]3C2)C1 : -0.74
Cc1c(C)c2c(c(C)c1O)CCC(C)(COc1ccc(CC3SC(=O)NC3=O)cc1)O2 (configuration not stated) [TROGLITAZONE] : -0.15
N=C(N)c1ccc(C(=O)N[C@@H](Cc2ccc(O)cc2)C(=O)N2CCC(OCC(=O)O)CC2)cc1 [LAMIFIBAN] : -0.54
Cn1cc(/C=C2/C(=O)N3C(C(=O)O)=CS[C@H]23)nn1 : -0.55
Cc1cc(O)c(C(=O)N[C@@H](C(=O)N[C@@H]2C(=O)N3C(C(=O)O)=C(CSc4nnnn4C)CS[C@H]23)c2ccc(O)cc2)cn1 [CEFPIRAMIDE] : -0.96
N=C(N)N1CCC[C@@H](CNC(=O)C[C@H](NS(=O)(=O)c2ccc3ccccc3c2)C(=O)N(CC(=O)O)C2CC2)C1 [NAPSAGATRAN ANHYDROUS] : -0.49
NC1(C(=O)O)CC1 [1-Aminocyclopropane carboxylic acid] : -0.14
CO[C@@]1(NC(=O)CSCC#N)C(=O)N2C(C(=O)O)=C(CSc3nnnn3C)CS[C@@H]21 [CEFMETAZOLE] : -0.85
Cc1nc(=O)c(C#N)c(NCc2cccnc2)[nH]1 [PELRINONE] : -0.46
C#C[C@]1(O)CC[C@H]2[C@@H]3CCc4cc(O)ccc4[C@H]3CC[C@@]21C [ETHINYL ESTRADIOL] : 1.26
O=P1(N(CCCl)CCCl)NCCCO1 (configuration not stated) [CYCLOPHOSPHAMIDE ANHYDROUS] : -0.15
CN1CCN(c2c(F)cc3c(=O)c(C(=O)O)cn(CCF)c3c2F)CC1 [FLEROXACIN] : 0.18
Nc1nc(/C(=N/O)C(=O)N[C@@H]2C(=O)N3C(C(=O)O)=C(/C=C4\CCN(CC(F)(F)F)C4=O)CS[C@H]23)cs1 [RO 25-6833] : -0.92
CCOC(=O)C1(c2ccccc2)CCN(C)CC1 [MEPERIDINE] : 0.64
CC(C)n1c(/C=C/C(O)CC(O)CC(=O)O)c(-c2ccc(F)cc2)c2ccccc21 (configuration not stated) [FLUVASTATIN] : -0.38
C[C@@H](O)[C@H]1C(=O)N2C(C(=O)O)=C(S[C@@H]3CN[C@H](C(=O)N(C)C)C3)[C@H](C)[C@H]12 [MEROPENEM] : -0.52
O=c1[nH]cnc2c1ncn2[C@H]1CC[C@@H](CO)O1 [DIDANOSINE] : -0.09
